- protocol notes: total protein half-life in vivo (active degradation + dilution); higher = more stable protein
- assay setup: wild type E. coli NCM3722; growth: C-lim chemostat; doubling time 3 h
reported endpoint: total protein half-life in vivo (h)

residue string	value measured
MQYNPLGKTDLRVSRLCLGCMTFGEPDRGNHAWTLPEESSRPIIKRALEGGINFFDTANSYSDGSSEEIVGRALRDFARREDVVVATKVFHRVGDLPEGLSRAQILRSIDDSLRRLGMDYVDILQIHRWDYNTPIEETLEALNDVVKAGKARYIGASSMHASQFAQALELQKQHGWAQFVSMQDHYNLIYREEEREMLPLCYQEGVAVIPWSPLARGRLTRPWGETTARLVSDEVGKNLYKESDENDAQIAERLTGVSEELGATRAQVALAWLLSKPGIAAPIIGTSREEQLDELLNAVDITLKPEQIAELETPYKPHPVVGFK	2.81
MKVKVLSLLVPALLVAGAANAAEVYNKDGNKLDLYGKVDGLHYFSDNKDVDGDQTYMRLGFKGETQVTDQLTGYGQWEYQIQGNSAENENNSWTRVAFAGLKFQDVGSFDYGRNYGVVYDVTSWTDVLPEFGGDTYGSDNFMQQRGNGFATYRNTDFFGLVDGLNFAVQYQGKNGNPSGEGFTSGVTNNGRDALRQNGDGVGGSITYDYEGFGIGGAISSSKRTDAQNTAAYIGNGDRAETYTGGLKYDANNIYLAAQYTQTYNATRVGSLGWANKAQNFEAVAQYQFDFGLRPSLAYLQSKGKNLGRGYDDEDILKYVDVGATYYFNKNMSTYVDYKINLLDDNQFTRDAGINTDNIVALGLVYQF	3.37
MVRKGCNSLVRAEKILTHIAWVGMASYMELLNKFQYPKSSLLNLLNVMVDCGFLIKNKNGYYSLGIKNYELGCQALHRQNIFEVTKRPMQELSLKSGLVCHLGAMESISAIYLDKIESPDSVPTSKSWIGKKLELHITALGKALLAWKTREELDYFLEALTLTPHTRNTFTDKKLFLEELQKTRLRGWAIDNEESTYGAVCLSMPVFNMYNRVNYAISLSGDPVVYSGNKIDSYLELLRKCAEQISYGLGYRNENEHLRKGN	1.15
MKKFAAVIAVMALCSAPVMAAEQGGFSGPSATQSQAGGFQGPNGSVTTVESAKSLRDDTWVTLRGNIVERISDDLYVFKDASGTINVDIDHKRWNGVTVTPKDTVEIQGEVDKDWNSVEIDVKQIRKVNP [P0ADU5]	2.89
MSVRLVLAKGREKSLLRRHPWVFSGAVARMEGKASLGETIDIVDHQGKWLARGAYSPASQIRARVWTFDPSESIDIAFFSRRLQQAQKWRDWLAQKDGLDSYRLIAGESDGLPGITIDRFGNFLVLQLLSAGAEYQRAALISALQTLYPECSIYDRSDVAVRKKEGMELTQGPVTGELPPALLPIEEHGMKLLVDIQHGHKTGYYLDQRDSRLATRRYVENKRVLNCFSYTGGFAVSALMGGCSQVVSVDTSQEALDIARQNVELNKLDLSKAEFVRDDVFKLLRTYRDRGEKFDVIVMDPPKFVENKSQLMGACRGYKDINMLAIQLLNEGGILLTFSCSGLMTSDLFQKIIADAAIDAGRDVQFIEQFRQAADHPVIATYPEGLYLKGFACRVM	3.02
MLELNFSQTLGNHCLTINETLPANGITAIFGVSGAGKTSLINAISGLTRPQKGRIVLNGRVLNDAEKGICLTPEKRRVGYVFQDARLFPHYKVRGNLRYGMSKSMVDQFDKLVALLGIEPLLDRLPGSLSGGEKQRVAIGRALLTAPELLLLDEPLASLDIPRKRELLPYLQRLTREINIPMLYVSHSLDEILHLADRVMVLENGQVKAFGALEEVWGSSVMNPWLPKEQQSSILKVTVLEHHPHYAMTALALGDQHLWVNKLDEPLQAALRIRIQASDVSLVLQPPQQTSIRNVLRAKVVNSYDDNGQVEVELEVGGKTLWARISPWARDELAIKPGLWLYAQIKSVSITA	2.76
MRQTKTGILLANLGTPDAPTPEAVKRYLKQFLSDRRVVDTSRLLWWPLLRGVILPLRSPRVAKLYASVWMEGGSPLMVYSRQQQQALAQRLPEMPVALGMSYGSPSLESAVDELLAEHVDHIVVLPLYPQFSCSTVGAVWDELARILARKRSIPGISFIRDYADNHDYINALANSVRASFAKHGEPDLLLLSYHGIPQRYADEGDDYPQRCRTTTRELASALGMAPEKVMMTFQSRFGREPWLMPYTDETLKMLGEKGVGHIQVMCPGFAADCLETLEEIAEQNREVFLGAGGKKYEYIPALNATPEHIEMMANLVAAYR	2.96
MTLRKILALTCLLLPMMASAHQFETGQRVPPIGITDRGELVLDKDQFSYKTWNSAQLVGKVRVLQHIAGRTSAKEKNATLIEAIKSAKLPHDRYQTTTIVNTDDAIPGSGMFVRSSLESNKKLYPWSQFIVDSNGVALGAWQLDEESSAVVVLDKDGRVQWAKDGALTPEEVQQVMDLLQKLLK	2.78
MTQPVLDIQQLHLSFPGFNGDVHALNNVSLQINRGEIVGLVGESGSGKSVTAMLIMRLLPTGSYCVHRGQISLLGEDVLNAREKQLRQWRGARVAMIFQEPMTALNPTRRIGLQMMDVIRHHQPISRREARAKAIDLLEEMQIPDAVEVMSRYPFELSGGMRQRVMIALAFSCEPQLIIADEPTTALDVTVQLQVLRLLKHKARASGTAVLFISHDMAVVSQLCDSVYVMYAGSVIESGVTADVIHHPRHPYTIGLLQCAPEHGVPRQLLPAIPGTVPNLTHLPDGCAFRDRCYAAGAQCENVPALTACGDNNQRCACWYPQQEVISV	2.28
MIDTTLPLTDIHRHLDGNIRPQTILELGRQYNISLPAQSLETLIPHVQVIANEPDLVSFLTKLDWGVKVLASLDACRRVAFENIEDAARHGLHYVELRFSPGYMAMAHQLPVAGVVEAVIDGVREGCRTFGVQAKLIGIMSRTFGEAACQQELEAFLAHRDQITALDLAGDELGFPGSLFLSHFNRARDAGWHITVHAGEAAGPESIWQAIRELGAERIGHGVKAIEDRALMDFLAEQQIGIESCLTSNIQTSTVAELAAHPLKTFLEHGIRASINTDDPGVQGVDIIHEYTVAAPAAGLSREQIRQAQINGLEMAFLSAEEKRALREKVAAK	2.88

###

- protocol notes: total protein half-life in vivo (active degradation + dilution); higher = more stable protein
- assay setup: E. coli NCM3722 delta-smpB; growth: N-lim chemostat; doubling time 6 h
reported endpoint: total protein half-life in vivo (h)

residue string	value measured
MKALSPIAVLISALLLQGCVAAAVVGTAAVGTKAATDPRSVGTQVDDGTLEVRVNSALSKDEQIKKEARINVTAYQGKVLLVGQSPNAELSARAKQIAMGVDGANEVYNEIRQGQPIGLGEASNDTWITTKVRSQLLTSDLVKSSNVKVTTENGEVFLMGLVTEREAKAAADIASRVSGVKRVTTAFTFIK	5.71
MKKLTVAALAVTTLLSGSAFAHEAGEFFMRAGSATVRPTEGAGGTLGSLGGFSVTNNTQLGLTFTYMATDNIGVELLAATPFRHKIGTRATGDIATVHHLPPTLMAQWYFGDASSKFRPYVGAGINYTTFFDNGFNDHGKEAGLSDLSLKDSWGAAGQVGVDYLINRDWLVNMSVWYMDIDTTANYKLGGAQQHDSVRLDPWVFMFSAGYRF [P0A915]	6.21
MSEIVIRHAETRDYEAIRQIHAQPEVYCNTLQVPHPSDHMWQERLADRPGIKQLVACIDGDVVGHLTIDVQQRPRRSHVADFGICVDSRWKNRGVASALMREMIEMCDNWLRVDRIELTVFVDNAPAIKVYKKYGFEIEGTGKKYALRNGEYVDAYYMARVK	3.82
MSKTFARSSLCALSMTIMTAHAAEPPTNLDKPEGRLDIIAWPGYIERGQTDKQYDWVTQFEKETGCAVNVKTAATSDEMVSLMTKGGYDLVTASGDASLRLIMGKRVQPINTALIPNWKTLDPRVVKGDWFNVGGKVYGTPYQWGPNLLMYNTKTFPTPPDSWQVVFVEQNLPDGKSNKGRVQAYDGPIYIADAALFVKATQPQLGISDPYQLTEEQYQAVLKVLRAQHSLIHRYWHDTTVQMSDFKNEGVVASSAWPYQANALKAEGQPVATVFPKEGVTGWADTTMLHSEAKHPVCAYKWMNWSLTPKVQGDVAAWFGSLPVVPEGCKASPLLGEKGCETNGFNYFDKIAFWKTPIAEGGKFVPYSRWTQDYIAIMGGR	5.71
MRWLPFIAIFLYVYIEISIFIQVAHVLGVLLTLVLVIFTSVIGMSLVRNQGFKNFVLMQQKMAAGENPAAEMIKSVSLIIAGLLLLLPGFFTDFLGLLLLLPPVQKHLTVKLMPHLRFSRMPGGGFSAGTGGGNTFDGEYQRKDDERDRLDHKDDRQD	5.53
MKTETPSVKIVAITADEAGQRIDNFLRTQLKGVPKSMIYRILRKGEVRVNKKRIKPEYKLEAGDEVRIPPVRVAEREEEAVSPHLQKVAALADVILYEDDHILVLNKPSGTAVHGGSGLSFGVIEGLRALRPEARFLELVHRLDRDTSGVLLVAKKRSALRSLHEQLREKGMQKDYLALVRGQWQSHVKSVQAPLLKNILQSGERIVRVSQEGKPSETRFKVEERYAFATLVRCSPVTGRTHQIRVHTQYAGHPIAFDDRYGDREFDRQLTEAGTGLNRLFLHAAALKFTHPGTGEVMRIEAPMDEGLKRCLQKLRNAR [P0AA39]	5.43
MSDISKASLPKAIFLMGPTASGKTALAIELRKILPVELISVDSALIYKGMDIGTAKPNAEELLAAPHRLLDIRDPSQAYSAADFRRDALAEMADITAAGRIPLLVGGTMLYFKALLEGLSPLPSADPEVRARIEQQAAEQGWESLHRQLQEVDPVAAARIHPNDPQRLSRALEVFFISGKTLTELTQTSGDALPYQVHQFAIAPASRELLHQRIEQRFHQMLASGFEAEVRALFARGDLHTDLPSIRCVGYRQMWSYLEGEISYDEMVYRGVCATRQLAKRQITWLRGWEGVHWLDSEKPEQARDEVLQVVGAIAG	4.28
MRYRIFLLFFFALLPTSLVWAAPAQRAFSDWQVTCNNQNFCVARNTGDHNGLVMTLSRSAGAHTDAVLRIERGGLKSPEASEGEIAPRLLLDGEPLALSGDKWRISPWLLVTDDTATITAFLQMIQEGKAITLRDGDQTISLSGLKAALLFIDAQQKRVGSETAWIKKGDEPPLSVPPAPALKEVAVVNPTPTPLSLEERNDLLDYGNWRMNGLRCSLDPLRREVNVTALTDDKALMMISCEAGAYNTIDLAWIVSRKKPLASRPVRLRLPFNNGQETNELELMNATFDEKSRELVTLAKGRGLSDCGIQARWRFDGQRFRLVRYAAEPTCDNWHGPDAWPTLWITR	5.55
MAFKIWQIGLHLQQQEAVAVAIVRGAKECFLQRWWRLPLENDIIKDGRIVDAQQLAKTLLPWSRELPQRHHIMLAFPASRTLQRSFPRPSMSLGEREQTAWLSGTMARELDMDPDSLRFDYSEDSLSPAYNVTAAQSKELATLLTLAERLRVHVSAITPDASALQRFLPFLPSHQQCLAWRDNEQWLWATRYSWGRKLAVGMTSAKELAAALSVDPESVAICGEGGFDPWEAVSVRQPPLPPPGGDFAIALGLALGKAY	2.82
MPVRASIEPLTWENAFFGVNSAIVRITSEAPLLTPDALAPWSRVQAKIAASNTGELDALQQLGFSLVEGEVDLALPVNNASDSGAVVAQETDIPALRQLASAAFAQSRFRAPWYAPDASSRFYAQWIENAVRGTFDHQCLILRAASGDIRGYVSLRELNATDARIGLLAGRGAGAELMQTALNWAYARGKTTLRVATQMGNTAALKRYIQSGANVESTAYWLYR	4.7
MKICLIDETGTGDGALSVLAARWGLEHDEDNLMALVLTPEHLELRKRDEPKLGGIFVDFVGGAMAHRRKFGGGRGEAVAKAVGIKGDYLPDVVDATAGLGRDAFVLASVGCRVRMLERNPVVAALLDDGLARGYADAEIGGWLQERLQLIHASSLTALTDITPRPQVVYLDPMFPHKQKSALVKKEMRVFQSLVGPDLDADGLLEPARLLATKRVVVKRPDYAPPLANVATPNAVVTKGHRFDIYAGTPV	5.27

Data credit: the supplement of paper PMC11246515
